Would you mind telling me the reported %Inh of each entry?
- Test system: MLK2;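 further: KINOMEscan kinase panel screen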
- condition_parameters: concentration: 1 μM, replicates: in singlicate; n = 1
Your answer should be a plain number; it is taken to be in %.

Prompt: What %Inh value was documented for this compound, CS(=O)(=O)CCNCc1ccc(-c2ccc3ncnc(Nc4ccc(OCc5ccccc5)c(Cl)c4)c3c2)o1.Cl [GW574783] ?
Completion: 31

Prompt: Item under review: FC(F)(F)c1ccc(-c2nn3ncccc3c2-c2ccnc(Nc3cccc(C(F)(F)F)c3)n2)cc1 [GW828205] . Reported %Inh?
Completion: 0

Prompt: Requested read-out: %Inh. Entry: CC(=O)Nc1n[nH]c2ncc(-c3ccccc3)cc12 [SB-548492]
Completion: 6

Prompt: Please report the recorded %Inh for CNc1nccc(-c2c(-c3ccc(F)cc3)ncn2CCCN2CCOCC2)n1 [SB-222516] .
Completion: 10
